Data origin, for the record: patent US20160159862A1

This section presents binders with their documented α4β7 cell (Hu) IC50 values.
Biological target: α4β7 integrin on human cells (human, UniProt P13612 34-1032; P26010 20-798)
Assay: cell-based or functional assay
Bridge positions count the residues as written; N and C are the ends. Square brackets hold non-standard residues; d marks the D form. Ends that are not written are not given here. * marks the point of attachment. Phe(4-tBu) = CC(C)(C)c1ccc(C[C@H](N)C(=O)O)cc1; 1Nal = N[C@@H](Cc1cccc2ccccc12)C(=O)O; NMeR = CN[C@@H](CCCNC(=N)N)C(=O)O; Pen = CC(C)(S)[C@H](N)C(=O)O; Hexanoyl = CCCCCC(=O)*

Below are worked cases with known answers.
binder	α4β7 cell (Hu) IC50
Hexanoyl-[Pen][NMeR]SDTL[Pen][Phe(4-tBu)][b‑H‑E][dK]-NH2 (disulfide 1-7 (inferred)) [SEQ ID NO 176]	> 50 nM
Ac-[Pen][NMeR]SDTL[Pen][1Nal][dE][dK]-NH2 (disulfide 1-7 (inferred); also: homodimer via DIG linker) [SEQ ID NO 32]	> 10 nM
Ac-[Pen][NMeR]SDTL[Pen]WE-OH (disulfide 1-7 (inferred)) [SEQ ID NO 128]	> 50 nM
Ac-[Pen][NMeR]SDTL[Pen][Phe(4-tBu)][b‑H‑E][dK] (disulfide 1-7 (inferred); not fully specified (residue 10); also: hexanoic acid attached after k) [SEQ ID NO 170]	> 10 nM

Now examine the next entry.
## Input For the binder Ac-[Pen][NMeR]SDTL[Pen][Phe(4-tBu)][b‑H‑E][dK]-NH2 (disulfide 1-7 (inferred); also: homodimer via IDA-PEG4-Biotin) [SEQ ID NO 167] , what α4β7 cell (Hu) IC50 is on record?
## Output ≤ 10 nM
